The measurements presented in this section are drawn from patent US8247437B2.

Below: a set of entries, each annotated with reported IC50.
# tgt: metalloelastase (MMP-12) (Homo sapiens, UniProt P39900)
# Sequence (P39900 106-470): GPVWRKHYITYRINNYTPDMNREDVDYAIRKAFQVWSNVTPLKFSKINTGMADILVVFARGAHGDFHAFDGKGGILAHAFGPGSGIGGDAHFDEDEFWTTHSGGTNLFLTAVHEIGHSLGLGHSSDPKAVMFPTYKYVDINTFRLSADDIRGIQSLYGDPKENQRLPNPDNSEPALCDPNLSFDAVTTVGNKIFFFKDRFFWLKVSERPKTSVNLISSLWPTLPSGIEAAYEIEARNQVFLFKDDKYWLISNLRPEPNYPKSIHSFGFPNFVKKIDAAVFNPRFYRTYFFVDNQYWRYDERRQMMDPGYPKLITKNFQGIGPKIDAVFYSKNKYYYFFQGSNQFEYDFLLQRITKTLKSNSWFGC
# assay_method_text: MMP-12 enzyme inhibition assay (coumarin-labelled peptide substrate McaPLGLDpaAR)
# Assay type: biochemical
# condition_label: Table 1, compounds of Formula (I); read-out: MMP-12 IC50
# Method: Stock solutions were made up as follows: Assay Butter: 100 mM Tris-HCl pH 7.6 is containing 100 mM NaCl, 10 mM CaCl2, and 0.05% Brij 35. Substrate: 0.4 mM McaPLGLDpaAR (from Bachem) (0.437 mg/ml) stock solution in 100% DMSO (stored at −20° C.). Dilute to 8 μM in assay butter. […] The effect of the test compound was determined from the dose response curve generated by the 10 duplicate concentrations of inhibitor. […]
metric: IC50 (nM)

1. CC(C)C[C@H](C(=O)N1CC=C(c2ccccc2)CC1)[C@@H](O)C(=O)NO :: 2
2. CC(C)C[C@H](C(=O)N1CCN(c2cc(C(F)(F)F)ccn2)C[C@H]1C)[C@H](O)C(=O)NO :: 31
3. COc1ccc(N2CCN(C(=O)[C@@H](CC(C)C)[C@@H](O)C(=O)NO)CC2)cc1 :: 4
4. CC(C)C[C@H](C(=O)N1CCN(c2noc(-c3ccccc3)n2)CC1)[C@@H](O)C(=O)NO :: 6
5. CC(C)C[C@H](C(=O)N1CCN(c2ccccn2)C[C@H]1C)[C@H](O)C(=O)NO (single isomer, unassigned) :: 17
6. O=C(NO)[C@H](O)[C@H](CCOCc1ccccc1)C(=O)N1CCN(c2ccc(-c3ccccc3)cc2)CC1 :: 7
7. CCOc1ccc(CCCC(C(=O)N2CCN(c3ccccc3F)C[C@H]2C)[C@H](O)C(=O)NO)cc1 (mixture of isomers) :: 33

----------
# tgt: metalloelastase (MMP-12) (Homo sapiens, UniProt P39900)
# assay_method_text: MMP-12 enzyme inhibition assay (coumarin-labelled peptide substrate McaPLGLDpaAR)
# Format: biochemical
# Method: Stock solutions were made up as follows: Assay Butter: 100 mM Tris-HCl pH 7.6 is containing 100 mM NaCl, 10 mM CaCl2, and 0.05% Brij 35. Substrate: 0.4 mM McaPLGLDpaAR (from Bachem) (0.437 mg/ml) stock solution in 100% DMSO (stored at −20° C.). Dilute to 8 μM in assay butter. […] The effect of the test compound was determined from the dose response curve generated by the 10 duplicate concentrations of inhibitor. […]
metric: IC50 (nM)

1) CCOc1ccc(CCC[C@@H](C(=O)N2CCC(Nc3ccccc3)CC2)[C@H](O)C(=O)NO)cc1 [Example 20] :: 29

----------
# tgt: gelatinase A (MMP-2) (Homo sapiens, UniProt P08253)
# Sequence (P08253 110-660): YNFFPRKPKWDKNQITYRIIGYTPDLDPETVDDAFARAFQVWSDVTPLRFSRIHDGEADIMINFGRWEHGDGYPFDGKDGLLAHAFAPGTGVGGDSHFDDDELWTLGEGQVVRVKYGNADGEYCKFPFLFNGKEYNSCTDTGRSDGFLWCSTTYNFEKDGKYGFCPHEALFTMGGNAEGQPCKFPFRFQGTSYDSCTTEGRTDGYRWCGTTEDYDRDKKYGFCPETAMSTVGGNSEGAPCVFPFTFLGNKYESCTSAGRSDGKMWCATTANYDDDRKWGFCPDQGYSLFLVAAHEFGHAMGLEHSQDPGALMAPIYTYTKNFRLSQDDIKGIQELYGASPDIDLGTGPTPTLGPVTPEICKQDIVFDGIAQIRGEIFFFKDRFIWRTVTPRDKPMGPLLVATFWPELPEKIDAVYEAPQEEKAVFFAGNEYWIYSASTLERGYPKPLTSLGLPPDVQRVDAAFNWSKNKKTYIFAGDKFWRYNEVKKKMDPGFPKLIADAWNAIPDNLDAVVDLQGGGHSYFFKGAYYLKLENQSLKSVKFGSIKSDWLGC
# assay_method_text: MMP-2 enzyme inhibition assay (coumarin-labelled peptide substrate McaPLGLDpaAR)
# Assay type: biochemical
# condition_label: Table 1, compounds of Formula (I); read-out: MMP-2 IC50
Checkbox rule: IC50 lower than 20 nM = Yes; IC50 not lower than 20 nM = No.

1) CCOc1ccc(CCCC(C(=O)N2CCN(c3ccccn3)C[C@H]2C)[C@H](O)C(=O)NO)cc1 (mixture of isomers) :: Yes
2) CC(C)C[C@H](C(=O)N1CCN(c2ccccn2)C[C@H]1C)[C@H](O)C(=O)NO (single isomer, unassigned) :: Yes
3) CC(C)C[C@H](C(=O)N1CCN(c2ccccn2)CC1)[C@H](O)C(=O)NO :: Yes
4) COc1ccc(N2CCN(C(=O)[C@@H](CC(C)C)[C@@H](O)C(=O)NO)CC2)cc1 :: No
5) CC(C)C[C@H](C(=O)N1CCN(c2nc(-c3ccccc3)ns2)CC1)[C@H](O)C(=O)NO :: Yes
6) O=C(NO)[C@H](O)[C@H](CCOCc1ccccc1)C(=O)N1CCN(c2ccc(-c3ccccc3)cc2)CC1 :: No
7) CC(C)C[C@H](C(=O)N1CCN(c2ccc(-c3ccccc3)cc2)C[C@H]1C)[C@H](O)C(=O)NO :: Yes
8) CCOc1ccc(CCCC(C(=O)N2CCN(c3ccccc3F)C[C@H]2C)[C@H](O)C(=O)NO)cc1 (mixture of isomers) :: No
9) CC(C)C[C@H](C(=O)N1CCN(c2noc(-c3ccccc3)n2)CC1)[C@@H](O)C(=O)NO :: Yes
10) CC(C)C[C@H](C(=O)N1CCN(c2cc(C(F)(F)F)ccn2)C[C@H]1C)[C@H](O)C(=O)NO :: No
11) C[C@@H]1CN(c2ccc(OC(F)(F)F)cc2)CCN1C(=O)[C@@H](CC1CCCC1)[C@H](O)C(=O)NO :: Yes
12) CC(C)C[C@H](C(=O)N1CC=C(c2ccccc2)CC1)[C@@H](O)C(=O)NO :: Yes

----------
# tgt: metalloelastase (MMP-12) (Homo sapiens, UniProt P39900)
# assay_method_text: MMP-12 enzyme inhibition assay (coumarin-labelled peptide substrate McaPLGLDpaAR)
# Assay type: biochemical
# condition_label: Table 1, compounds of Formula (I); read-out: MMP-12 IC50
# Method: Stock solutions were made up as follows: Assay Butter: 100 mM Tris-HCl pH 7.6 is containing 100 mM NaCl, 10 mM CaCl2, and 0.05% Brij 35. Substrate: 0.4 mM McaPLGLDpaAR (from Bachem) (0.437 mg/ml) stock solution in 100% DMSO (stored at −20° C.). Dilute to 8 μM in assay butter. […] The effect of the test compound was determined from the dose response curve generated by the 10 duplicate concentrations of inhibitor. […]
pIC50: −log10 of the molar value.
metric: pIC50

1. CC(C)C[C@H](C(=O)N1CCN(c2ccc(-c3ccccc3)cc2)C[C@H]1C)[C@H](O)C(=O)NO :: 8.30
2. CC(C)C[C@H](C(=O)N1CCN(c2ccccn2)CC1)[C@H](O)C(=O)NO :: 8.40
3. CC(C)C[C@H](C(=O)N1CCN(c2nc(-c3ccccc3)ns2)CC1)[C@H](O)C(=O)NO :: 6.99
4. CCOc1ccc(CCCC(C(=O)N2CCN(c3ccccn3)C[C@H]2C)[C@H](O)C(=O)NO)cc1 (mixture of isomers) :: 7.70

----------
# tgt: collagenase (MMP-1) (Homo sapiens, UniProt P03956)
# Sequence (P03956 100-469): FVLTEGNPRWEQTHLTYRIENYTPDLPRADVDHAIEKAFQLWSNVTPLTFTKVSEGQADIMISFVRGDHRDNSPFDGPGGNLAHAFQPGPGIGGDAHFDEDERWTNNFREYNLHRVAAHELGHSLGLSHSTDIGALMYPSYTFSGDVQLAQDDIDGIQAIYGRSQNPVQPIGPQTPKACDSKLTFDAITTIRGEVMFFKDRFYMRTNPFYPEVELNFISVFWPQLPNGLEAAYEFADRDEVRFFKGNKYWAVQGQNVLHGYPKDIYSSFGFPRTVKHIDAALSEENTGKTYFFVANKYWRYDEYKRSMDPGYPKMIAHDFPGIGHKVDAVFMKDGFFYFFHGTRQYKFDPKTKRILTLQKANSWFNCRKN
# assay_method_text: MMP-1 enzyme inhibition assay (coumarin-labelled peptide substrate McaPLGLDpaAR)
# Assay type: biochemical
# condition_label: Table 1, compounds of Formula (I); read-out: MMP-1 IC50
metric: IC50

1. CCOc1ccc(CCCC(C(=O)N2CCN(c3ccccn3)C[C@H]2C)[C@H](O)C(=O)NO)cc1 (mixture of isomers) :: > 5 µM
2. CC(C)C[C@H](C(=O)N1CCN(c2ccccn2)CC1)[C@H](O)C(=O)NO :: 0.418 µM
3. CCOc1ccc(CCCC(C(=O)N2CCN(c3ccccc3F)C[C@H]2C)[C@H](O)C(=O)NO)cc1 (mixture of isomers) :: > 5 µM
4. CC(C)C[C@H](C(=O)N1CC=C(c2ccccc2)CC1)[C@@H](O)C(=O)NO :: > 5 µM

----------
Below: a set of entries, each annotated with reported pIC50.
# tgt: collagenase (MMP-1) (Homo sapiens, UniProt P03956)
# assay_method_text: MMP-1 enzyme inhibition assay (coumarin-labelled peptide substrate McaPLGLDpaAR)
# Type: biochemical
# condition_label: Table 1, compounds of Formula (I); read-out: MMP-1 IC50
pIC50: −log10 of the molar value.
metric: pIC50

1) O=C(NO)[C@H](O)[C@H](CCOCc1ccccc1)C(=O)N1CCN(c2ccc(-c3ccccc3)cc2)CC1 :: < 5.30
2) CC(C)C[C@H](C(=O)N1CCN(c2cc(C(F)(F)F)ccn2)C[C@H]1C)[C@H](O)C(=O)NO :: < 5.30
3) CC(C)C[C@H](C(=O)N1CCN(c2nc(-c3ccccc3)ns2)CC1)[C@H](O)C(=O)NO :: 6.06
4) CC(C)C[C@H](C(=O)N1CCN(c2ccccn2)C[C@H]1C)[C@H](O)C(=O)NO (single isomer, unassigned) :: 6.52
5) COc1ccc(N2CCN(C(=O)[C@@H](CC(C)C)[C@@H](O)C(=O)NO)CC2)cc1 :: < 5.30
6) CC(C)C[C@H](C(=O)N1CCN(c2noc(-c3ccccc3)n2)CC1)[C@@H](O)C(=O)NO :: < 5.30
7) CC(C)C[C@H](C(=O)N1CCN(c2ccc(-c3ccccc3)cc2)C[C@H]1C)[C@H](O)C(=O)NO :: < 5.30
8) C[C@@H]1CN(c2ccc(OC(F)(F)F)cc2)CCN1C(=O)[C@@H](CC1CCCC1)[C@H](O)C(=O)NO :: 5.94

----------
Below: a set of entries, each annotated with reported log10 of IC50.
# tgt: 92 kDa gelatinase (MMP-9) (Homo sapiens, UniProt P14780)
# Sequence (P14780 107-707 limits assumed): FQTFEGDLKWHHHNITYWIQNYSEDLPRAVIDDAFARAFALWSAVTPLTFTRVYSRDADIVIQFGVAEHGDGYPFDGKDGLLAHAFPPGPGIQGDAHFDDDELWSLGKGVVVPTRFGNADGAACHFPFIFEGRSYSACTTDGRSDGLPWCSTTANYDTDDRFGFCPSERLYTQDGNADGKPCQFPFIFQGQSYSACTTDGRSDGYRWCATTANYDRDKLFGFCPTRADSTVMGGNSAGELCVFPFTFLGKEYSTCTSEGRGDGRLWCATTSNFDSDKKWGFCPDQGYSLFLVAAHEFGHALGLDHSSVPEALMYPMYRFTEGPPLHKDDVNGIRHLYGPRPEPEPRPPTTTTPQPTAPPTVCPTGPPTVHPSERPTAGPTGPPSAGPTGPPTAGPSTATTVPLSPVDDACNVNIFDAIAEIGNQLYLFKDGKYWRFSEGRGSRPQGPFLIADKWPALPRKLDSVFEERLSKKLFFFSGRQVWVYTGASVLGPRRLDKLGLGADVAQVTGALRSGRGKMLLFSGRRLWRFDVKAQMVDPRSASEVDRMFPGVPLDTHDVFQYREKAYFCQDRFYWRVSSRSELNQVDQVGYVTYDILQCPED
# assay_method_text: MMP-9 enzyme inhibition assay (coumarin-labeled peptide substrate McaPLGLDpaAR)
# Type: biochemical
# condition_label: Table 1, compounds of Formula (I); read-out: MMP-9 IC50
# Experimental: Compounds of the invention were tested for inhibitory activity against 92 kDa gelatinase (MMP-9) in an assay using a coumarin-labeled peptide substrate, (7-methoxycoumarin-4-yl)acetyl-Pro-Leu-Gly-Leu-(3-[2,4-dinitrophenyl]-L-2,3diaminopropionyl)-Ala-Arg-NH2 (McaPLGLDpaAR) (Knight et al, FEBS Lett. 1992; 263-266). […] The effect of the test compound was determined from the dose response curve generated by the 10 duplicate concentrations of inhibitor. […]
metric: log10 of IC50 (log10 of the value in nM)

1) CC(C)C[C@H](C(=O)N1CCN(c2nc(-c3ccccc3)ns2)CC1)[C@H](O)C(=O)NO :: 0.85
2) CC(C)C[C@H](C(=O)N1CCN(c2ccc(-c3ccccc3)cc2)C[C@H]1C)[C@H](O)C(=O)NO :: 0.85
3) CCOc1ccc(CCCC(C(=O)N2CCN(c3ccccn3)C[C@H]2C)[C@H](O)C(=O)NO)cc1 (mixture of isomers) :: 1.34
4) COc1ccc(N2CCN(C(=O)[C@@H](CC(C)C)[C@@H](O)C(=O)NO)CC2)cc1 :: 2.77
5) CC(C)C[C@H](C(=O)N1CCN(c2cc(C(F)(F)F)ccn2)C[C@H]1C)[C@H](O)C(=O)NO :: 2.45
6) CCOc1ccc(CCCC(C(=O)N2CCN(c3ccccc3F)C[C@H]2C)[C@H](O)C(=O)NO)cc1 (mixture of isomers) :: 2.37
7) CC(C)C[C@H](C(=O)N1CC=C(c2ccccc2)CC1)[C@@H](O)C(=O)NO :: 1.68
8) CC(C)C[C@H](C(=O)N1CCN(c2ccccn2)CC1)[C@H](O)C(=O)NO :: 0.70
9) C[C@@H]1CN(c2ccc(OC(F)(F)F)cc2)CCN1C(=O)[C@@H](CC1CCCC1)[C@H](O)C(=O)NO :: 1.69
10) CC(C)C[C@H](C(=O)N1CCN(c2ccccn2)C[C@H]1C)[C@H](O)C(=O)NO (single isomer, unassigned) :: 1.08
11) O=C(NO)[C@H](O)[C@H](CCOCc1ccccc1)C(=O)N1CCN(c2ccc(-c3ccccc3)cc2)CC1 :: 2.29
12) CC(C)C[C@H](C(=O)N1CCN(c2noc(-c3ccccc3)n2)CC1)[C@@H](O)C(=O)NO :: 1.61
